Target: T1, mouse angiopoietin-2 (mouse, UniProt O35608 19-496, limits assumed)
T1 construct: Bought recombinant protein; also called mouse Ang-2; mAng-2
T1 sequence (looked up): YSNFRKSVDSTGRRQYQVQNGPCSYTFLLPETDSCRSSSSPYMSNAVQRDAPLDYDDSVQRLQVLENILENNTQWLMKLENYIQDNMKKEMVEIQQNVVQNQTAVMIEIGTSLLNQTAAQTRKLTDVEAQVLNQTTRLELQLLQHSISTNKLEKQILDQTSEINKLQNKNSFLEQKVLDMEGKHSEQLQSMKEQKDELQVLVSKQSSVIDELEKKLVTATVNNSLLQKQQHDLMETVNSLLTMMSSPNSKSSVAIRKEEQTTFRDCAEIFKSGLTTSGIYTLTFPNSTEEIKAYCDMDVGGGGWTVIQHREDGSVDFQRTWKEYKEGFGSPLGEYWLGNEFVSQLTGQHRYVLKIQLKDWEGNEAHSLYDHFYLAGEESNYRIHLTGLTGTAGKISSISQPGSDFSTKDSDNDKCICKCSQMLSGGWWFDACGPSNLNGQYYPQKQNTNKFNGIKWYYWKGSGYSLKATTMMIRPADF
Experiment: competition cell ECL; mAng-2 pre-incubated with binder, free Ang-2 captured on HEK:hTie-2 cells (competitor)
The reader will find reported pIC50 values listed item by item below.
Reminder that pIC50 means the negative base-10 logarithm of the concentration expressed in mol/L.

hNGAL lipocalin mutein SEQ ID NO: 1 (designed binder, Mutein of mature hNGAL) QDSTSDLIPAPPLSKVPLQQNFQDNQFHGKWYVVGQAGNYILREDKDPGKMWATIYELKEDKSYNVTGVSFGPKKCNYTIWTFVPGSQPGEFTLGGIKSPPGGTSTLVRVVSTNYNQHAMVFFKHVLQNREFFEITLYGRTKELTSELKENFIRFSKSLGLPENHIVFPVPIDQCIDGSAWSHPQFEK; 8.40
hNGAL lipocalin mutein SEQ ID NO: 14 (designed binder, Mutein of mature hNGAL) QDSTSDLIPAPPLSKVPLQQNFQDNQFHGKWYVVGMAGNWDLREDKDPIKMTATIYELKEDKSYDVTQVAFEQKKCKYSIHTFVPGSQPGEFTLGQIKSWPGDTSPLVRVVSTNYNQHAMVFFKGVMQNREVFAITLYGRTKELTSELKENFIRFSKSLGLPENHIVFPVPIDQCIDGSAWSHPQFEK; 8.63

Now let's try a different one.
Task: Given the binder hNGAL lipocalin mutein SEQ ID NO: 13 (designed binder, Mutein of mature hNGAL) QDSTSDLIPAPPLSKVPLQQNFQDNQFHGKWYVVGVAGNWYLREDKDPIKMTATIYELKEDKSYDVTQVGFEQEKCKYSIHTFVPGSQPGEFTLGDIKSWPGDTSPLVRVVSTNYNQHAMVFFKGMMQDREVFAITLYGRTKELTSELKENFIRFSKSLGLPENHIVFPVPIDQCIDGSAWSHPQFEK , what is its reported pIC50?
Result: 8.13
